What FACs 10 ug/ml (percent gated) was measured for each of the following?
target: T1, human CD38 on transiently transfected Expi293 cells (Origene #SC321273) (human, UniProt P28907 1-300); assay: flow cytometry, transfected Expi293 cells;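 also: antibody binding to Expi293 cells transiently expressing human or murine CD38, antibodies applied at 10 ug/ml for 60 min on ice, read by flow cytometry as percent gated cells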
T1 construct: whole, on cells; also called Human (FACs)
Answers are plain numbers, in %.

Examples with answers:
1) 40566p1.A7 (scFv, V domains shown, tested as scFv-Fc supernatant) VH: RELVESGGGVVRPGESLRLSCAASGFTFDNYDMTWVRQAPGEGLEWVSFISSRGTFTYYTDSVRGRFTISRDNSKNTLYLEMNSLRAEDTAIYYCAKDSGEYYFFDYWGLGTLVTVSS VL: EIVMTQSPATLSVSPGERATFSCRASQSVNSKLAWYQQKPGQAPRLLIYGASRRATGIPDRFSGSGSGTEFTLTISSLQSEDFAVYYCQQYYDWPPLTFGGGTKVEIK    14.2
2) 40617p1.2.A3 (scFv, V domains shown, tested as scFv-Fc supernatant) VH: EVQLLESGGGLVQPGGSLRLSCAASGFTFSNYWMTWVRQAPGKGLEWVSAISSYGGNYIYYADSVKGRFTISRDNSKDTLYLQMNSLRAEDTAVYYCAKDWDDGMDVWGQGTTVTVSS VL: EIVMTQSPAVLSVSPGERATLSCRASQSVNSKLAWYQQKPGQAPRLLIYGASTRAAGIPDRFSGSGSGTDFTLTISSPQSEDFAVYYCQHYYDLPPYSFGGGTKVEIK    70.3
3) 40566p1.D2 (scFv, V domains shown, tested as scFv-Fc supernatant) VH: DVQLVESGGGVVRPGESLRLSCAASGFTFDNYDMTWVRQAPGEGLEWVSFISSRGTFTYYTDSVKGRFTISRDNSKNTLYLQMNSLRAEDTAIYYCTKDSGEYYFFDYWGLGTLVTVSS VL: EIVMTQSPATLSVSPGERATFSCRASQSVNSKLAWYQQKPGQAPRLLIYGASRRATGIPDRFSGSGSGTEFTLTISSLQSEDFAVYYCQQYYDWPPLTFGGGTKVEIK    20.1
4) 40596p1.B1 (scFv, V domains shown, tested as scFv-Fc supernatant) VH: EVQLLESGGGLVEPGGSLRLSCAASGFDFSTYAMTWVRQAPGKGLEWVAGNGWSGSFIYYADSVKGRFTISRDNSKNTLYLQMNSLRAEDTAVYYCTRNPGFGEMDVWGQGTTVTVSS VL: EIVLTQSPGTLRLSPGERATLSCKASQTVGTTLAWYQQKPGQAPRLLIYGASTRATGIPDRFSGSGSGTEFTLTISSLQSEDFADYYCQQYKSWPPLTFGGGTKVEIK    66.1
5) 40769p1.1.A4 (scFv, V domains shown, tested as scFv-Fc supernatant) VH: EVQLLESGGGLVQPGGSLRLSCTASGITFSRFNMFWVRQAPGKGLEFVASIRDDGSWTYYADSVKGRFTISRDNSKNTLYLQMNSLRAEDTAVYYCAKDYNSKDFIYHYVMDVWGQGTTVTVSS VL: QSVLTQPPSASGTPGQRVTISCSGRNSNIGNNVVNWYQQLPGTAPKLLIYKDDQRPSGVPDRFSGSKSGTSASLAISGLQSEDEADYYCSTWDDSLNGWVFGGGTKLTVL    69.9

Hi team, please reply with FACs 10 ug/ml (percent gated) for each item in this list.
1. 40769p1.1.B10 (scFv, V domains shown, tested as scFv-Fc supernatant) VH: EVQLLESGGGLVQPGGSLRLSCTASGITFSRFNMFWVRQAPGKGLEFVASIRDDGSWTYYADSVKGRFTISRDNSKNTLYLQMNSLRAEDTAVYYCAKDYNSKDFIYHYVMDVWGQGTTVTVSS VL: QSVLTQPPSASGTPGQRVTISCSGRNSNIGNNVVNWYQQLPGTAPKLLIYRNQERPSGVPDRFSGSKSGTSASLAISGLQSEDEADYYCSTWDDSLNGWVFGGGTKLTVL
2. 40769p1.2.E3 (scFv, V domains shown, tested as scFv-Fc supernatant) VH: EVQLLESGGDLVQPGGSLRLSCGASGFTFSDHYMSWVRQAPGKGLEWVADISARGSNTWYADSVKGRFTISRDNSENTLYLQMNSLRAEDTAVYYCAKNWNYNYGMDVWGQGTTVTVSS VL: QSVLTQAPSASGTPGQRVTISCSGSSIQNNYVSWYQQLPGTAPKLLIYRNFERPSGVPDRFSASKSGTSASLAISGLQSEDEADYYCASWDDSLNWVFGGGTKLTVL
3. 40596p1.H7 (scFv, V domains shown, tested as scFv-Fc supernatant) VH: EVQLLESGGGLVQPGGSLRLSCAASGFDFSTYAMTWVRQAPGKGLEWVAGNGWSGSFTYYADSVKGRFTVSRDNSKNTLYLQMNSLRAEDTAVYYCTRNPGFGEMDVWGQGTTVTVSS VL: EIVLTQSPGTLRLSPGERATLSCRASQTVGTTLAWYQQKPGQAPRLLIHGASTRATDIPDRFSGSGSGTEFTLTISSLQSEDFADYYCQQYKSWPPLTFGGGTKVEIK
4. 40566p1.C9 (scFv, V domains shown, tested as scFv-Fc supernatant) VH: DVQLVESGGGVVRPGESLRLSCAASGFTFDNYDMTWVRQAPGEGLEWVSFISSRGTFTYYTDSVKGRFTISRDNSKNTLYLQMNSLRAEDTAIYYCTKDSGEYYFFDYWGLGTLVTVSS VL: ETVMTQSPATLSVSPGERATFSCRASQSVNSKLAWYQQKPGQAPRLLIYDASRRATGIPDRFSGSGSGTEFTLTISSLQSEDFAVYFCQQYYDWPPLTFGGGTKVEIK
5. 40617p1.2.A1 (scFv, V domains shown, tested as scFv-Fc supernatant) VH: EVQLLESGGGLVQPGGSLRLSCAASGFTFSSYWMTWVRQAPGKGLEWVSAISSYGGQYTYYADSVKGRFTISRDNSKDTLYLHMDSLRAEDTAVYYCAKDWDDGMDVWGQGTTVTVSS VL: EIVMTQSPAVLSVSPGERATLSCRASQSVNIKLAWYQQKPGQAPRLLIYGASTRAAGIPDRFSGSGSGTDFTLTISSLQSDDFAVYYCQQYYDLPPYSFGGGTKVEIK

1. 76.4
2. 80.5
3. 71.7
4. 31.3
5. 78.8
